# System: P12-Ichikawa
# assay-comment: cell viability relative to DMSO control; higher = less cytotoxic
# study-conditions: RPMI 5 mM glucose + 10% FBS; 48 h; 5.12 µM
endpoint: cell viability
// unit must come after the numeric part

Solved cases below.
| compound | cell viability |
| --- | --- |
| CN1CCCN=C1/C=C/c1cccs1.O=C(O)c1cc2ccccc2c(Cc2c(O)c(C(=O)O)cc3ccccc23)c1O | 110% |
| CCOC(=O)C/1=C(O)/C(=O)N(CC2=CC=CC=C2)C1 | 114% |
| COC1=CC=C(C=C1)C/2=C/OC3=C(C(=CC(=C3)O)O)C2=O | 123% |
| CNc1nccc(-c2cccnc2Oc2cc(C(=O)Nc3cccc(C(F)(F)F)c3)ccc2C)n1 | 119% |
| S=P(N1CC1)(N1CC1)N1CC1 | 104% |

Q) Recall and state the measured cell viability for C[S+](=O)([O-])N1CCc2c(-c3cnc(N)nc3)nc(N3CCOCC3)nc21 .
A) 84.8%

Q) Dear colleague, please send me the reported cell viability for CCC(C)(Oc1ccc(C2(c3ccc(OC(C)(CC)C(=O)O)cc3)CCCCC2)cc1)C(=O)O (stereo not drawn) when you can.
A) 100%

Q) Supply cell viability value. Item: CCN1\C=C(\C(O)=O)C(=O)C2=CC=C(C)N=C12
A) 88.8%
